Every entry's value here was drawn from patent US10174016B2.

Parameter: pIC50. Scope: all listed entries.
Target: human P2X2/3 receptor (Homo sapiens (Human), UniProt P56373+Q9UBL9)
Sequence (P56373 whole entry): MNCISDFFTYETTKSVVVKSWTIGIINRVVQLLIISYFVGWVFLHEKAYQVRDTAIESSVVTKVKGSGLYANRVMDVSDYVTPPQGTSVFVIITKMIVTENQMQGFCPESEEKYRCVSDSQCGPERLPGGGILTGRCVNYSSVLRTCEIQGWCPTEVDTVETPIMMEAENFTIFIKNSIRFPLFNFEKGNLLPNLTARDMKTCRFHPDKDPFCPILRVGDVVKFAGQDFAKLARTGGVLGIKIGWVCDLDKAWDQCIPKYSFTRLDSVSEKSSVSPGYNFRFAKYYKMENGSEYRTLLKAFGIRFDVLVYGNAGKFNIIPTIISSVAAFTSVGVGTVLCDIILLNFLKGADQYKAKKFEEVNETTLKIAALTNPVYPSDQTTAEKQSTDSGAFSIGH
Sequence (Q9UBL9 whole entry): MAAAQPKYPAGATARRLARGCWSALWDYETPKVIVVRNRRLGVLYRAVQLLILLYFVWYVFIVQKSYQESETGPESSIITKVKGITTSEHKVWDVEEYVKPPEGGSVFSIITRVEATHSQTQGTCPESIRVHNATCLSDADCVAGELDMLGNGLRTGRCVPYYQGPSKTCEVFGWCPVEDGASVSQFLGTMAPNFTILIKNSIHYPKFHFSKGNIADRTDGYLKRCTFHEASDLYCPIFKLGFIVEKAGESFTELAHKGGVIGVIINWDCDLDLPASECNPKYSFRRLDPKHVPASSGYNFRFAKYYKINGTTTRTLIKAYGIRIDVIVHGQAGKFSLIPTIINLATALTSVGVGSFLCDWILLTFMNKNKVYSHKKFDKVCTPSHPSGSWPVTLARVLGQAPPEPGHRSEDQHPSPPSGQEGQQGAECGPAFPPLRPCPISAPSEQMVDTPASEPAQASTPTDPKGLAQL
Experiment: Intracellular calcium measurement (FLIPR, Fluo-4) of antagonist activity at human P2X2/3 receptors
Format: cell-based
Settings: human P2X2/3, FLIPR calcium assay, agonist α,β-Me-ATP; read-out: hP2X2/3 IC50
Interpret pIC50 as the negative base-10 log of the concentration measured in mol/L.

Some solved cases for reference:
# pIC50 (compound: Cc1cnc(-c2cc(OCC3CCOCC3)cc(C(=O)NC(C)c3ncc(Cl)cc3F)c2)s1 (stereo not shown) ) is 6.89

# pIC50 (compound: Cc1cnc(-c2cc(O[C@H]3CCOC3)cc(C(=O)NC(C)c3ncc(Cl)cc3F)c2)s1 (stereo partly shown) ) is 6.68

# pIC50 (compound: Cc1cc(Oc2cc(C(=O)N[C@H](C)c3ccc(C)nn3)cc(-c3ncc(C)s3)c2)ccn1 ) is 7.80

Now consider a different compound.
# pIC50 (compound: Cc1cnc(-c2cc(OC3COC3)cc(C(=O)N[C@H](C)c3cnc(C(F)(F)F)nc3)c2)s1 ) is 6.35

---

Parameter: IC50. Scope: all listed entries.
Target: UniProt:P56373
Assay: Intracellular calcium measurement (FLIPR, Fluo-4) of antagonist activity at human P2X3 receptors
Type: cell-based
Conditions: human P2X3, FLIPR calcium assay, agonist α,β-Me-ATP; read-out: hP2X3 IC50

# IC50 (compound: Cc1cnc(-c2cc(OC3COC3)cc(C(=O)NC(C)c3nnc(C(F)(F)F)s3)c2)s1 (single isomer, unassigned) [Example 193] ) is 2710 nM

---
# IC50 (compound: Cc1cnc(-c2cc(OC[C@@H]3COCCN3C)cc(C(=O)N[C@H](C)c3ccc(C(F)(F)F)nc3)c2)s1 ) is 14 nM

# IC50 (compound: Cc1ccc([C@@H](C)NC(=O)c2cc(Oc3ccnc(C)c3)cc(-c3ncc(C)s3)c2)cn1 ) is 9 nM

# IC50 (compound: Cc1cnc(-c2cc(OC3CCOCC3)cc(C(=O)NC(C)c3ncc(Cl)cc3F)c2)s1 (centres unmarked) ) is 3 nM

# IC50 (compound: Cc1cnc(-c2cc(OC3CN(C)C3)cc(C(=O)N[C@H](C)c3ccc(C(F)(F)F)nn3)c2)s1 ) is 395 nM

# IC50 (compound: Cc1cnc(-c2cc(OC[C@@H]3CN(C)C(=O)CO3)cc(C(=O)N[C@H](C)c3cnc(C(F)(F)F)nc3)c2)s1 ) is 30 nM

# IC50 (compound: Cc1cnc(-c2cc(OC[C@@H]3COCCO3)cc(C(=O)N[C@H](C)c3ccc(C(F)(F)F)nc3)c2)s1 ) is 31 nM

# IC50 (compound: Cc1cnc(-c2cc(OCC3CNCCC3(F)F)cc(C(=O)N[C@H](C)c3cnc(C(F)(F)F)nc3)c2)s1 (some centres unmarked) ) is 6 nM

# IC50 (compound: CC(C)c1cnc(-c2cc(OC[C@@H]3CCOC3)cc(C(=O)N[C@H](C)c3ccc(C(F)(F)F)nn3)c2)s1 ) is 63 nM

# IC50 (compound: Cc1cnc(-c2cc(OC[C@H]3COCCN3C)cc(C(=O)N[C@H](C)c3cnc(C(F)(F)F)nc3)c2)s1 ) is 10 nM

# IC50 (compound: Cc1cnc(-c2cc(O[C@H]3CCOC3)cc(C(=O)N[C@H](C)c3ccc(Cl)cn3)c2)s1 ) is 25 nM

# IC50 (compound: C[C@@H](NC(=O)c1cc(OC[C@@H]2CCCO2)cc(-c2ncc(C3CCC3)s2)c1)c1ccc(C(F)(F)F)nn1 ) is 78 nM

# IC50 (compound: C[C@@H](NC(=O)c1cc(O[C@@H]2CCOC2)cc(-c2ncc(Cl)s2)c1)c1ccc(C(F)(F)F)nn1 ) is 32 nM

# IC50 (compound: Cc1ncc([C@@H](C)NC(=O)c2cc(OC3CCN(CC(F)(F)F)CC3)cc(-c3ncc(C)s3)c2)cn1 ) is 8 nM
